- System: Type II neuronal voltage-activated sodium channels (Rattus norvegicus)
- Sequence (P04775 whole entry): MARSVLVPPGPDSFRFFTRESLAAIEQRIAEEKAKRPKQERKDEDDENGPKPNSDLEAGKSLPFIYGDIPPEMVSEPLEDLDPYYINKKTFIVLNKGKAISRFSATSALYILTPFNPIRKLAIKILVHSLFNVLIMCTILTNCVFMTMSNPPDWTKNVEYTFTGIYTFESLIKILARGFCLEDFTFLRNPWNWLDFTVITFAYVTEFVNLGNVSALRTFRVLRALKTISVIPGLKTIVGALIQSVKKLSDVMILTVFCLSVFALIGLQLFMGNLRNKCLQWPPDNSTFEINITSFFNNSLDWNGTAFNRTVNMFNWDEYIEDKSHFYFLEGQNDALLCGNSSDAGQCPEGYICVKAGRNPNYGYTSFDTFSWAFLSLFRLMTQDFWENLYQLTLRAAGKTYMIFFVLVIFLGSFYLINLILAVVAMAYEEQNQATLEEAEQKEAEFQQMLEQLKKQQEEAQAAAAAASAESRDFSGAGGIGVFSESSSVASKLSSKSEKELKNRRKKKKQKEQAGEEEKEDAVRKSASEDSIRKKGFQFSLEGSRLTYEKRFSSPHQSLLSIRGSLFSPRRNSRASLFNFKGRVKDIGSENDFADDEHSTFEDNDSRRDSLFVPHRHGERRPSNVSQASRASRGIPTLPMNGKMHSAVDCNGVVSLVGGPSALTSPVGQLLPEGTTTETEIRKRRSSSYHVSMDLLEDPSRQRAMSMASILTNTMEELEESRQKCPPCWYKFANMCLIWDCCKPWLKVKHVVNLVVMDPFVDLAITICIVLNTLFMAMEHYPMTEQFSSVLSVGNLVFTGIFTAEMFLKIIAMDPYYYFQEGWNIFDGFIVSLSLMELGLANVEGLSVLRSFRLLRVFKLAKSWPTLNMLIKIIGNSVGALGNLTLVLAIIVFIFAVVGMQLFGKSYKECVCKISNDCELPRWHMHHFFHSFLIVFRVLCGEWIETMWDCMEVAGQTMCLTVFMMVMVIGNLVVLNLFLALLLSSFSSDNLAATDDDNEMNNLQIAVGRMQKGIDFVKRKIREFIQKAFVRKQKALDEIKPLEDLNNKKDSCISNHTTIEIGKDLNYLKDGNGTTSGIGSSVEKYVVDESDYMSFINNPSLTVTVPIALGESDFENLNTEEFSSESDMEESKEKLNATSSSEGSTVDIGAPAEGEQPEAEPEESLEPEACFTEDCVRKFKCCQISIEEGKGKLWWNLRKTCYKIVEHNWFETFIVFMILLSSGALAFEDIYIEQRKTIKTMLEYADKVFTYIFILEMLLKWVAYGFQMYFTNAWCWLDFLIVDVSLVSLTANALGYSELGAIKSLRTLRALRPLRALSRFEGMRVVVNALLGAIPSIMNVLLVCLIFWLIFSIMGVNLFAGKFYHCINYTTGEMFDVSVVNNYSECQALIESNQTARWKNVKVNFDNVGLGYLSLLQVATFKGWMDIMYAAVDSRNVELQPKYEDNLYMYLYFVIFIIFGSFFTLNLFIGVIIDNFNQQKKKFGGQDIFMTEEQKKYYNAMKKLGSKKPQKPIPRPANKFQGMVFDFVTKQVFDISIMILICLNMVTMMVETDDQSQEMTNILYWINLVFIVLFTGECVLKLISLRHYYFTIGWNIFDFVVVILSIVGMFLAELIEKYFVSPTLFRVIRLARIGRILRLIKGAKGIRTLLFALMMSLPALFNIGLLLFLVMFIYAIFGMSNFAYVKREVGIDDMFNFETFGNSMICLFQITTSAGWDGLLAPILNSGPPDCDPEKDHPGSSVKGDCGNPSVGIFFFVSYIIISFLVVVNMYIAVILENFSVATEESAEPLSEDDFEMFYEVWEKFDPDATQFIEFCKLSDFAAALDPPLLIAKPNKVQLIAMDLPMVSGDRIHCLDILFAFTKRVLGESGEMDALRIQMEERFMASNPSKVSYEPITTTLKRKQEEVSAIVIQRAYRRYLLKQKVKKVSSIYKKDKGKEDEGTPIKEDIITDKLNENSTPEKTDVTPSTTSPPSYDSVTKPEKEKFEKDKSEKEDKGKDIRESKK
- Method summary: cell-based
For each record, write down the corresponding pIC50.
pIC50 here: minus log base 10 of the concentration, concentration in moles per litre.

Just so you know, measured pIC50 for CC(C)(C)c1ccc(CN(C(=N)N)c2cccc(I)c2)cc1 came out at 6.40

Just so you know, measured pIC50 for CCC(C)c1ccc(N2CCCN(c3ccc(C(C)CC)cc3)C2=N)cc1 (centres unmarked) came out at 6.70

Just so you know, measured pIC50 for CC(C)(C)c1ccc(CN(C(=N)N)c2ccc(Cl)c3ccccc23)cc1 came out at 5.66

Just so you know, measured pIC50 for CCC(C)c1ccc(N(Cc2ccc(C(C)(C)C)cc2)C(=N)N)cc1 (centres unmarked) came out at 6.10

Just so you know, measured pIC50 for CCC(C)c1ccc(N(C)C(=N)N(C)c2ccc(C(C)CC)cc2)cc1 (centres unmarked) came out at 6.22
